Assign % Inhibition to each entry below.
system: human Factor 7 mRNA; assay: Antisense inhibition of human Factor 7 with short (14-mer) oligonucleotides in HepB3 cells, electroporation 1,000 nM; format: cell-based; conditions: electroporation, 1,000 nM antisense oligonucleotide, approximately 24 hours, Factor 7 mRNA relative to untreated control cells
Strand notation (5' to 3'): a small letter for the sugar, then the base; units joined by * are phosphorothioate-linked, units joined directly phosphodiester-linked; [ ] holds rarer units or linkages, { } end groups; capitals alone tell only the bases. e = 2'-O-(2-methoxyethyl) (MOE); [5mC] = 5-methylcytosine; d = 2'-deoxy (DNA)
Provide only the numeric value, understood in %.

Bench note: what % Inhibition did 435480 (antisense eG*eG*dT*d[5mC]*dA*dT*d[5mC]*dA*dG*d[5mC]*d[5mC]*dG*eG*eG) [compound 435480] show?
53

Bench note: what % Inhibition did 435783 (antisense eA*eA*dA*d[5mC]*d[5mC]*dG*dG*d[5mC]*dA*dT*dG*d[5mC]*eG*e[5mC]) [compound 435783] show?
49

Bench note: what % Inhibition did 435837 (antisense e[5mC]*eT*d[5mC]*dG*d[5mC]*d[5mC]*dT*dG*dG*dA*dA*dG*eG*eA) [compound 435837] show?
37

Bench note: what % Inhibition did 435790 (antisense eA*eT*dG*dA*d[5mC]*d[5mC]*dA*dT*d[5mC]*d[5mC]*dT*d[5mC]*eA*eA) [compound 435790] show?
1

Bench note: what % Inhibition did 435662 (antisense eT*eG*dG*dA*dT*dA*dT*dT*d[5mC]*dA*dA*d[5mC]*eT*eG) [compound 435662] show?
19

Bench note: what % Inhibition did 435781 (antisense eA*e[5mC]*d[5mC]*dA*d[5mC]*dG*d[5mC]*dG*dG*dT*dG*dG*eT*eG) [compound 435781] show?
0

---

system: human Factor 7 mRNA; assay: Antisense inhibition of human Factor 7 mRNA in HepB3 cells, 50 nM antisense oligonucleotide, lipofectin; assay type: cell-based; settings: lipofectin, 50 nM antisense oligonucleotide, approximately 24 hours, Factor 7 mRNA by real-time RT-PCR (RTS 2927), relative to untreated control
Strand notation (5' to 3'): a small letter for the sugar, then the base; units joined by * are phosphorothioate-linked, units joined directly phosphodiester-linked; [ ] holds rarer units or linkages, { } end groups; capitals alone tell only the bases. e = 2'-O-(2-methoxyethyl) (MOE); [5mC] = 5-methylcytosine; d = 2'-deoxy (DNA)
propertyName: % Inhibition (%)
Provide only the numeric value, understood in %.

Bench note: what % Inhibition did 416424 (antisense eG*eA*eG*eA*e[5mC]*d[5mC]*dA*dT*dG*dA*dT*dG*dA*dA*dA*eT*e[5mC]*eT*e[5mC]*eT) [compound 416424] show?
27

Bench note: what % Inhibition did 416567 (antisense eT*eG*eG*eT*eG*dG*d[5mC]*dA*d[5mC]*d[5mC]*dA*dG*dA*dT*dG*eT*e[5mC]*eT*eG*eA) [compound 416567] show?
2

Bench note: what % Inhibition did 416545 (antisense eA*eG*eA*eA*eA*d[5mC]*dA*dT*d[5mC]*d[5mC]*d[5mC]*dA*dT*dT*dT*eT*e[5mC]*e[5mC]*e[5mC]*eA) [compound 416545] show?
8

---

system: human Factor 7 mRNA; test: Dose-dependent antisense inhibition of human Factor 7 in HepB3 cells, lipofectin; type: cell-based; conditions: Table 3, 100.0 nM, approximately 16 hours
Strand notation (5' to 3'): a small letter for the sugar, then the base; units joined by * are phosphorothioate-linked, units joined directly phosphodiester-linked; [ ] holds rarer units or linkages, { } end groups; capitals alone tell only the bases. e = 2'-O-(2-methoxyethyl) (MOE); [5mC] = 5-methylcytosine; d = 2'-deoxy (DNA)
percent inhibition of Factor 7 vs 90%: at or above is true (1), below is false (0).

Is percent inhibition of Factor 7 at least 90%? Consider 407594 (antisense e[5mC]*e[5mC]*eT*eG*e[5mC]*dA*dG*d[5mC]*d[5mC]*dA*dG*dG*d[5mC]*dA*dG*e[5mC]*e[5mC]*e[5mC]*eT*eG) [compound 407594]
false (0)

Is percent inhibition of Factor 7 at least 90%? Consider 407643 (antisense e[5mC]*eA*e[5mC]*eA*e[5mC]*dA*dT*dG*dG*dA*dG*dT*d[5mC]*dA*dG*e[5mC]*eA*eT*e[5mC]*eG) [compound 407643]
true (1)

Is percent inhibition of Factor 7 at least 90%? Consider 407606 (antisense e[5mC]*eT*eG*eG*eT*d[5mC]*d[5mC]*dT*dT*dG*d[5mC]*dA*dG*dG*dA*eG*e[5mC]*e[5mC]*e[5mC]*e[5mC]) [compound 407606]
false (0)

---

tested on: human Factor 7 mRNA; assay: Antisense inhibition of human Factor 7 mRNA in HepB3 cells, 50 nM antisense oligonucleotide, lipofectin; assay type: cell-based; settings: oligonucleotides targeted to nucleobases 11830 to 11869 of SEQ ID NO: 1 (Table 9)
Strand notation (5' to 3'): a small letter for the sugar, then the base; units joined by * are phosphorothioate-linked, units joined directly phosphodiester-linked; [ ] holds rarer units or linkages, { } end groups; capitals alone tell only the bases. e = 2'-O-(2-methoxyethyl) (MOE); [5mC] = 5-methylcytosine; d = 2'-deoxy (DNA)
% Inhibition (human Factor 7 mRNA levels) vs 50%: at or above is Met, below is Not met.

Is % Inhibition (human Factor 7 mRNA levels) at least 50%? Consider 422092 (antisense eA*eT*eG*eG*eT*d[5mC]*dA*dG*dG*dG*d[5mC]*dT*dG*dG*dT*eT*eT*eT*eG*eG) [compound 422092]
Not met

Is % Inhibition (human Factor 7 mRNA levels) at least 50%? Consider 422244 (antisense eG*eA*dG*dG*dA*dG*dA*d[5mC]*dA*dA*dT*dG*dG*dT*d[5mC]*eA*eG*eG*eG*e[5mC]) [compound 422244]
Met

Is % Inhibition (human Factor 7 mRNA levels) at least 50%? Consider 422233 (antisense eG*eG*dT*d[5mC]*dA*dG*dG*dG*d[5mC]*dT*dG*dG*dT*dT*dT*eT*eG*eG*eA*eG) [compound 422233]
Not met

Is % Inhibition (human Factor 7 mRNA levels) at least 50%? Consider 422241 (antisense eG*eA*dG*dA*d[5mC]*dA*dA*dT*dG*dG*dT*d[5mC]*dA*dG*dG*eG*e[5mC]*eT*eG*eG) [compound 422241]
Met

Is % Inhibition (human Factor 7 mRNA levels) at least 50%? Consider 422094 (antisense e[5mC]*eA*eA*eT*eG*dG*dT*d[5mC]*dA*dG*dG*dG*d[5mC]*dT*dG*eG*eT*eT*eT*eT) [compound 422094]
Not met

Is % Inhibition (human Factor 7 mRNA levels) at least 50%? Consider 422167 (antisense eG*eA*eG*dG*dA*dG*dA*d[5mC]*dA*dA*dT*dG*dG*dT*d[5mC]*dA*dG*eG*eG*e[5mC]) [compound 422167]
Met

Is % Inhibition (human Factor 7 mRNA levels) at least 50%? Consider 422156 (antisense eG*eG*eT*d[5mC]*dA*dG*dG*dG*d[5mC]*dT*dG*dG*dT*dT*dT*dT*dG*eG*eA*eG) [compound 422156]
Not met

Is % Inhibition (human Factor 7 mRNA levels) at least 50%? Consider 422174 (antisense eG*e[5mC]*eT*dG*dG*d[5mC]*dT*dG*dA*dG*dG*dA*dG*dA*d[5mC]*dA*dA*eT*eG*eG) [compound 422174]
Met

Is % Inhibition (human Factor 7 mRNA levels) at least 50%? Consider 422250 (antisense e[5mC]*eT*dG*dG*d[5mC]*dT*dG*dA*dG*dG*dA*dG*dA*d[5mC]*dA*eA*eT*eG*eG*eT) [compound 422250]
Met

Is % Inhibition (human Factor 7 mRNA levels) at least 50%? Consider 422245 (antisense eT*eG*dA*dG*dG*dA*dG*dA*d[5mC]*dA*dA*dT*dG*dG*dT*e[5mC]*eA*eG*eG*eG) [compound 422245]
Not met

Is % Inhibition (human Factor 7 mRNA levels) at least 50%? Consider 422238 (antisense eA*e[5mC]*dA*dA*dT*dG*dG*dT*d[5mC]*dA*dG*dG*dG*d[5mC]*dT*eG*eG*eT*eT*eT) [compound 422238]
Met

Is % Inhibition (human Factor 7 mRNA levels) at least 50%? Consider 422160 (antisense e[5mC]*eA*eA*dT*dG*dG*dT*d[5mC]*dA*dG*dG*dG*d[5mC]*dT*dG*dG*dT*eT*eT*eT) [compound 422160]
Not met

Is % Inhibition (human Factor 7 mRNA levels) at least 50%? Consider 422165 (antisense eG*eG*eA*dG*dA*d[5mC]*dA*dA*dT*dG*dG*dT*d[5mC]*dA*dG*dG*dG*e[5mC]*eT*eG) [compound 422165]
Met

Is % Inhibition (human Factor 7 mRNA levels) at least 50%? Consider 422090 (antisense eG*eG*eT*e[5mC]*eA*dG*dG*dG*d[5mC]*dT*dG*dG*dT*dT*dT*eT*eG*eG*eA*eG) [compound 422090]
Not met

Is % Inhibition (human Factor 7 mRNA levels) at least 50%? Consider 422168 (antisense eT*eG*eA*dG*dG*dA*dG*dA*d[5mC]*dA*dA*dT*dG*dG*dT*d[5mC]*dA*eG*eG*eG) [compound 422168]
Not met
